Where do these numbers come from? They come from paper PMC9352680.

# Assay Target: T1, PUF4 RNA-binding domain (Saccharomyces cerevisiae, UniProt P25339 537-888)
# T1 sequence: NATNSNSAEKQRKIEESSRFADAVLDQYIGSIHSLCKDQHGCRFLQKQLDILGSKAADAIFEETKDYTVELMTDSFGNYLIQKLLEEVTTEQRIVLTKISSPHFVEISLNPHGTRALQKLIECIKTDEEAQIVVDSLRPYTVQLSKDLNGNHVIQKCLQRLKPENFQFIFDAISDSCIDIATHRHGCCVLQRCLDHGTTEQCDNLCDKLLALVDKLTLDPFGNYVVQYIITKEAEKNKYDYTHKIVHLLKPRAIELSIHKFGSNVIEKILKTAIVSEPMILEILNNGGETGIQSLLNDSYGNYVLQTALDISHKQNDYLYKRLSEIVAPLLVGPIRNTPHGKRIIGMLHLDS
# Protocol: Mg; RNA-MaP; 20 mM Na-HEPES pH 7.4, 30 mM KOAc, 0.75 mM MgCl2, 0.1% Tween-20, 5% glycerol, 0.1 mg/mL BSA, 2 mM DTT; 25 C; 0.0125-409.6 nM protein
# Protocol Conditions: tags: N-His6-TEV cleaved; C-SNAP kept, Cy3B-labelled; label: tethered on chip by stalled RNA polymerase
pKd: −log10 of the molar value.
A collection of binders and their measured pKd
Endpoint: pKd

Binder	Inequality Operator	Readout Value
UCUCUUUGUAAACAGUCUCUU (ssRNA) [Ic_S1_P4E.1_K4.1_C4.1_H4.1_A4.1_[T5A]_[T7C]_F4.1_[T8A]_[A9G]_T4.1]	=	6.29
ACAAACUGACACUUAUUACGACAAAC (ssRNA) [Id_ii_S3_P5E.4_K5.3_C5.2_[C-2T]_[T-1G]_H5.3_A5.1_F5.1_T5.2_[T11C]_[A12G]]	<	5.64
Ic_S2_P5E.1_K5.1_C5.1_H5.1_A5.1_[T6C]_F5.1_[T9A]_T5.1 (ssRNA) RNA: UUUGAUUAAUAUGAUAUCGUUCUUUCUUGUAUCAUAAUUCUUUCUCGAUAUCAUAUUAAUCUUU	=	9.08
UCUCUUUGUACGAAUUUCUCUU (ssRNA) [Ic_S1_P5E.1_K5.1_C5.1_H5.1_A5.1_[T5C]_[T6G]_F5.1_[T8A]_[A10T]_T5.1]	=	6.16
UCUCUUUAUAUAUAUAUAUCUCUU (ssRNA) [Id_i_S1_P3E.3_K3.2_C3.2_[C-2T]_[T-1A]_H3.2_A3.1_F3.1_T3.2]	=	6.36
UCUCUUUGUAGCAUAGUCUCUU (ssRNA) [Ic_S1_P5E.1_K5.1_C5.1_H5.1_A5.1_[T5G]_[T6C]_F5.1_[T9A]_[A10G]_T5.1]	=	8.02
UCUCUUGCUAUAUUAUUAUCUCUCUU (ssRNA) [Id_ii_S1_P5E.3_K5.2_C5.2_[C-2G]_[T-1C]_H5.2_A5.1_F5.1_T5.2_[A12C]]	=	6.51
UCUCUUAGUAUUAUAAUCUCUU (ssRNA) [Ib_S1_P5E.1_K5.1_C5.1_H5.1_[T1A]_A5.1_F5.1_[T9A]_T5.1]	=	6.21
Ic_S4_P5E.1_K5.1_C5.1_H5.1_A5.1_[T5A]_[T6C]_[A7C]_F5.1_[T8G]_[T9C]_[A10C]_T5.1 (ssRNA) RNA: UUUGACAACUGAUCGUUCUUUCUUGUAACCGCCUUCUUUCUCGAUCAGUUGUCUUU	=	5.86
UCUCUUUGUAUCCUAUCUCUU (ssRNA) [Ic_S1_P4E.1_K4.1_C4.1_H4.1_A4.1_[A6C]_[T7C]_F4.1_T4.1]	=	8.36
UCUCUUUGUAUUCCUCUCUU (ssRNA) [Ic_S1_P3E.1_K3.1_C3.1_H3.1_A3.1_[A6T]_F3.1_[T7C]_[A8C]_T3.1]	=	6.95
Id_ii_S2_P4E.3_K4.2_C4.2_[T-1G]_H4.2_A4.1_F4.1_T4.2_[G10A]_[T11A] (ssRNA) RNA: UUUGAUUAAUAUGAUAUCGUUCUUUCUCGUAUAUAUUAAAUUCUUUCUCGAUAUCAUAUUAAUCUUU	=	7.69
UCUCUUUGUAUAUUAUUAAUUCUCUU (ssRNA) [Id_ii_S1_P5E.3_K5.2_C5.2_[C-2T]_[T-1G]_H5.2_A5.1_F5.1_T5.2_[T11A]_[A12T]]	=	9.21
